# Target System: PSG G322A G335A (PSD-95)
# Measurement Notes: FP displacement (competition) of FITC-15 AA CRIPT by library peptide, IC50 and Ki
# Conditions Used: read-out: IC50 (µM), PSG G322A G335A; FP displacement of FITC-15 AA CRIPT probe by acetylated PSD library peptide (P-13 to P0 plus extra N-terminal Y)
Parameter: IC50 (µM)
# output: bare number, implied unit µM

Examples with answers:
1. CC[C@H](C)[C@H](NC(=O)[C@@H]1CCCN1C(=O)[C@H](Cc1ccc(O)cc1)NC(C)=O)C(=O)NCC(=O)NCC(=O)N[C@@H](CO)C(=O)N[C@@H](CC(C)C)C(=O)N[C@@H](CC(N)=O)C(=O)N[C@@H](CO)C(=O)N[C@H](C(=O)N[C@H](C(=O)N[C@@H](CC(=O)O)C(=O)N[C@@H](CO)C(=O)N[C@@H](C)C(=O)N[C@@H](CC(C)C)C(=O)O)[C@@H](C)O)[C@@H](C)O : 76
2. CSCC[C@H](NC(=O)[C@H](CC(N)=O)NC(=O)[C@H](CCCCN)NC(=O)[C@H](CC(C)C)NC(=O)[C@@H](NC(=O)[C@H](CC(=O)O)NC(=O)[C@H](Cc1ccc(O)cc1)NC(C)=O)C(C)C)C(=O)N[C@H](C(=O)N[C@@H](CC(=O)O)C(=O)N[C@@H](CCCCN)C(=O)N[C@@H](C)C(=O)N1CCC[C@H]1C(=O)N1CCC[C@H]1C(=O)NCC(=O)N[C@H](C(=O)O)C(C)C)[C@@H](C)O : 940
3. CC[C@H](C)[C@H](NC(=O)[C@H](Cc1ccccc1)NC(=O)[C@H](CO)NC(=O)[C@H](CCCNC(=N)N)NC(=O)[C@H](CCCCN)NC(=O)[C@@H]1CCCN1C(=O)[C@H](CCCCN)NC(=O)[C@H](C)NC(=O)[C@H](C)NC(=O)[C@@H](NC(=O)[C@H](Cc1ccc(O)cc1)NC(C)=O)[C@@H](C)O)C(=O)N[C@@H](CCC(=O)O)C(=O)N[C@@H](CO)C(=O)N[C@@H](CC(N)=O)C(=O)N[C@H](C(=O)O)C(C)C : 12
4. CC[C@H](C)[C@H](NC(=O)[C@H](Cc1ccc(O)cc1)NC(=O)[C@H](CO)NC(=O)CNC(=O)[C@H](CO)NC(=O)[C@H](CCC(N)=O)NC(=O)[C@H](Cc1ccc(O)cc1)NC(C)=O)C(=O)N[C@@H](Cc1c[nH]c2ccccc12)C(=O)N[C@H](C(=O)N1CCC[C@H]1C(=O)N[C@@H](C)C(=O)N[C@@H](CCCCN)C(=O)N[C@@H](CCC(=O)O)C(=O)N[C@@H](CCCCN)C(=O)N[C@@H](CC(C)C)C(=O)O)C(C)C : 1590
5. CC[C@H](C)[C@H](NC(=O)[C@H](CC(C)C)NC(=O)[C@H](C)NC(=O)[C@@H](NC(=O)[C@H](C)NC(=O)[C@H](Cc1ccc(O)cc1)NC(C)=O)C(C)C)C(=O)N[C@@H](C)C(=O)N[C@@H](Cc1ccc(O)cc1)C(=O)N[C@@H](CC(C)C)C(=O)N[C@@H](CO)C(=O)N[C@@H](CCCCN)C(=O)N[C@@H](CC(N)=O)C(=O)N[C@@H](CC(N)=O)C(=O)N[C@@H](Cc1c[nH]cn1)C(=O)N[C@@H](CC(C)C)C(=O)O [SYNG1] : 733

Incoming: // IC50 lookup, key: `CC[C@H](C)[C@H](NC(=O)[C@@H](NC(=O)[C@H](CCCCN)NC(=O)[C@H](CCCCN)NC(=O)CNC(=O)[C@H](CC(C)C)NC(=O)[C@H](CCCCN)NC(=O)[C@H](C)NC(=O)[C@H](CCSC)NC(=O)[C@H](CCCNC(=N)N)NC(=O)[C@H](CCSC)NC(=O)[C@H](CCCNC(=N)N)NC(=O)[C@H](CC(C)C)NC(=O)[C@H](C)NC(=O)[C@H](Cc1ccc(O)cc1)NC(C)=O)C(C)C)C(=O)O`
Outgoing: 1630
